molecular target: T1, rhPSMA, extracellular part of human PSMA (residues 44-750) with its native N-terminus (human, UniProt Q04609 44-750, N-glycosylated (made in Schneider S2 insect cells)); assay: SPR (BIAcore 2000), rhPSMA amine-coupled to CM5 chip, Anticalin as analyte
T1 construct: range 44-750; No tag; also called wild-type rhPSMA; rhGCPII
T1 sequence (Q04609 44-750 limits assumed): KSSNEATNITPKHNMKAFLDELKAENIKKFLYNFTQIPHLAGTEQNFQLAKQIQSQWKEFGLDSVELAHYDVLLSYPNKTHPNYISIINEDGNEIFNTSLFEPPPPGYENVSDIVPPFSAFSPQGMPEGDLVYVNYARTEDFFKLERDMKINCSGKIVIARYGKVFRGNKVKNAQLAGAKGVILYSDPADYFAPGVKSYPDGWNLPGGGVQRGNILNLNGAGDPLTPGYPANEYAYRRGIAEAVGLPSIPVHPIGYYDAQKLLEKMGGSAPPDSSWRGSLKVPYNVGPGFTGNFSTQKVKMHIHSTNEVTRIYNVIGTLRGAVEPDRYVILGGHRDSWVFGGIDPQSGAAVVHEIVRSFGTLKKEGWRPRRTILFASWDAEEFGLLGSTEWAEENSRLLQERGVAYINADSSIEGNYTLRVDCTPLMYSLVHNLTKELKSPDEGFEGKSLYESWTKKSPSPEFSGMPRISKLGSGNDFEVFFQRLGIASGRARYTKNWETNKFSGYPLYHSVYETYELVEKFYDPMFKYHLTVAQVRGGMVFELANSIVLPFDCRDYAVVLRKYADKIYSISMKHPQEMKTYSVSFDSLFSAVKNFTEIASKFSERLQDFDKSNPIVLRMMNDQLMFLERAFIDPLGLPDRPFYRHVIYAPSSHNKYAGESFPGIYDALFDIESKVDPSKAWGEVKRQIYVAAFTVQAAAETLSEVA
Test readout: koff (s⁻¹)

- Anticalin A3A5 (designed binder, Differs from A3 by Val for Met at position 40; monomeric, 21 kDa; also called variant A3A5; not shown: C-terminal Strep-tag II) QDSTSDLIPAPPLSKVPLQQNFQDNQFHGKWYVVGLAGNVILREDKDPYKMSATIYELKEDKSYNVTNVRFYLKKCYYTIATFVPGSQPGEFTLGTIKSGPGKTSGLVRVVSTNYNQHAMVFFKEVQQNREWFIITLYGRTKELTSELKENFIRFSKSLGLPENHIVFPVPIDQCIDG: 0.00017

src = patent US20180318451A1
